Origin of values: the supplement of paper PMC7125110

B1: glmS ribozyme (parent)
chain: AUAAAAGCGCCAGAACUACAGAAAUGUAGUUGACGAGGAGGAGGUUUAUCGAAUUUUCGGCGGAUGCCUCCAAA

Variants of: B1
PROTOCOL_DESCRIPTION: kcat; higher = faster cleavage; RNA array
CONDITION_DESCRIPTION: with glucosamine-6-phosphate
Fewer inactive variants are shown than the library holds.
READOUT_KIND: kcat (s⁻¹)
Could you give me the number in s⁻¹? Just the number is fine.

Consider the following illustrative entries.
- MUTATION_DESCRIPTOR: "G37U U49A C61G C70G"
  MEASURED_NUMBER: "2.13e-05"
- MUTATION_DESCRIPTOR: "A12C G62U C70G"
  MEASURED_NUMBER: "2.02e-05"
- MUTATION_DESCRIPTOR: "U65G C67U"
  MEASURED_NUMBER: 0.00306
- MUTATION_DESCRIPTOR: "U31C C71A"
  MEASURED_NUMBER: 0.000686
- MUTATION_DESCRIPTOR: "G51U G60C C70G"
  MEASURED_NUMBER: "1.22e-05"
- MUTATION_DESCRIPTOR: "A14U G44U"
  MEASURED_NUMBER: "7.47e-05"
- MUTATION_DESCRIPTOR: "U54C U57G"
  MEASURED_NUMBER: 0.000492
- MUTATION_DESCRIPTOR: "U31A A42U"
  MEASURED_NUMBER: 0.000111

kcat reported for this variant G44A A53C : 0.000111

kcat reported for this variant U46A A64G : 0.00469

kcat reported for this variant C16A U46G A48G C50U C67A : 1.04e-05

kcat reported for this variant G29A A53C : 0.000592

kcat reported for this variant U65G G66A : 0.00234

kcat reported for this variant U46C C67G : 0.000658
